Biological target: Fibroblast growth factor 10 (Homo sapiens)
Experiment: FGF10 binders on small-molecule microarrays, primary screen, biochemical, small-molecule microarray, 635 nm fluorescence (AID 1102)
Settings: FGF10 binding, fluorescence 635 nm, higher = more signal
OBSERVED PROPERTY: composite z-score
# print the numeric value only

Solved cases (3 shown):
MOLECULE	composite z-score
COC(=O)[C@H](C)NC(=O)CCC1CC(OC(=O)NCc2ccc3c(c2)OCO3)CC2(CCCC(COC(=O)NCc3ccccc3)O2)O1 (stereo not given in full)	0.894
CC(CCN1CCCc2nc(C)c(C)cc21)=NO[C@H](C)c1cn([C@@H]2COC[C@H]2O)nn1	0.667
Cc1ccc(C(C)C)n1C(=O)OC(C)(C)C	0.789

Task item: Which composite z-score reading was recorded for the molecule O=C1[C@H]2[C@H]3[C@H](O)[C@H](O)CC(=NO[C@@H]4O[C@H](CO)[C@@H](O)[C@H](O)[C@H]4O)[C@H]3CC[C@H]2C(=O)N1c1ccc(F)cc1F ?
Reply: -0.0077

Task item: Which composite z-score reading was recorded for the molecule C#CCCCON=C1[C@H]2CCn3c(=O)n(Cc4cc5c(cc4Cl)OCO5)c(=O)n3[C@H]2[C@H](O)[C@@H]2O[C@H]12 ?
Reply: 0.914

Task item: Which composite z-score reading was recorded for the molecule CCN1C(=O)[C@H]2[C@H]3[C@H](O)[C@H](O)CC(=NNC(=O)OCc4ccccc4)[C@@H]3CC[C@H]2C1=O ?
Reply: -0.163

Task item: Which composite z-score reading was recorded for the molecule CC(=O)OC[C@H]1O[C@H](CC=NOC(C)CN2CCCCc3nc(C)c(C)cc32)C=C[C@@H]1OC(C)=O (stereo not given in full) ?
Reply: 0.83

Task item: Which composite z-score reading was recorded for the molecule CO[C@@H]1COC(=O)[C@@H]2CCCN2C(=O)[C@@H](C)COC(=O)CCC[C@H]1C ?
Reply: 0.981

Task item: Which composite z-score reading was recorded for the molecule CCOC(=O)[C@H](CC(C)C)NC(=O)CCC1CC(OC(=O)NCCc2ccc(F)cc2)CC2(CCCC(COC(=O)NCc3cccc(C(F)(F)F)c3)O2)O1 (stereo not given in full) ?
Reply: 1.39

Task item: Which composite z-score reading was recorded for the molecule CCOC(=O)[C@H](CC(C)C)NC(=O)CCC1CC(OC(=O)NCc2ccc3c(c2)OCO3)CC2(CCCC(COC(=O)NCCc3ccccc3OC)O2)O1 (stereo not given in full) ?
Reply: 0.533

Values from PubChem BioAssay
